B1: PhoQ; a variant is named by its letters at X, in order, P23837 (parent)
chain: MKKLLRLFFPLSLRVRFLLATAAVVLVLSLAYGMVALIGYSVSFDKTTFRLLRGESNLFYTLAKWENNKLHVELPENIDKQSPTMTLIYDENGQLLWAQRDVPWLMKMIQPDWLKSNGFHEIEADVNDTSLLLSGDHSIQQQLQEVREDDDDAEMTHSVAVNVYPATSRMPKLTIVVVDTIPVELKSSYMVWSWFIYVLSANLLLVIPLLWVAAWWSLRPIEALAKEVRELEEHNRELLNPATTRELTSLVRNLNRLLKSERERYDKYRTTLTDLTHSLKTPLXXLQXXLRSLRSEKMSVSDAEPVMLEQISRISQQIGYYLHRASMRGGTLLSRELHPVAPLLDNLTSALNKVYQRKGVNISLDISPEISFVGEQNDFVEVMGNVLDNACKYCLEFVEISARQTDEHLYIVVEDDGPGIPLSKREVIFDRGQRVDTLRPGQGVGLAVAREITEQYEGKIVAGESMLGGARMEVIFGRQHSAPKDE

# Variants of: B1
# assayProcedure: enrichment ratio after two sorts for PhoP signalling (ratio (wild type AVST 3.29)); higher = more functional
# assaySetup: with PhoP (E. coli)
The full ranking holds about 140,000 sequences; the median of “enrichment ratio after two sorts for PhoP signalling” is about 0, and the highest 2% start at about 11. Only a selection was taken, and the highest values are over-represented in it overall.
assayEndpoint: enrichment ratio

The following variants have reported results that may help.
Request: If you can, please state the reported enrichment ratio value of `VCGI` .
Response: ≤ 0.25

Request: Query: enrichment ratio; subject: `MSCE`
Response: ≤ 0.25

Now consider the entry below.
Request: Looking for the measured enrichment ratio of `MSEL` , can you help?
Response: ≤ 0.25
